run_description: Inhibition of 5-FAM tracer binding to WDR5 delta23 mutant (24 to 334 residues) (unknown origin) expressed in Escherichia coli Rosetta 2 (DE3) cells after 3 hrs by fluorescence polarization assay
Set-up: species or system Homo sapiens
pIC50: −log10 of the molar value. Bridge positions count the residues as written; N and C are the ends. Square brackets hold non-standard residues; d marks the D form. Peptide text beside a SMILES is read from it. * marks the point of attachment. Arg(Me2s) = CN=C(NC)NCCC[C@H](N)C(=O)O; d(αMeK) = C[C@@](N)(CCCCN)C(=O)O; dPhg = N[C@@H](C(=O)O)c1ccccc1; Isobutyryl = CC(C)C(=O)*; Abu = CC[C@H](N)C(=O)O
endpoint: pIC50

• CC[C@@H]1NC(=O)[C@H](CCCNC(=N)N)NC(=O)[C@](C)(NC(=O)C(C)C)CCCCCNC(=O)[C@@H](c2ccccc2)NC1=O = 8.59
• CC[C@@H]1NC(=O)[C@H](CCCNC(=N)N)NC(=O)[C@H](NC(=O)C(C)C)CCCCNC(=O)[C@@H](c2ccccc2)NC1=O (Isobutyryl-[dK]R[Abu][dPhg]; lactam 1-C) = 6.53
• CC[C@@H]1NC(=O)[C@H](CCCN/C(=N/C)NC)NC(=O)[C@](C)(NC(=O)C(C)C)CCCCNC(=O)[C@@H](c2ccccc2)NC1=O (Isobutyryl-[d(αMeK)][Arg(Me2s)][Abu][dPhg]; lactam 1-C) = 8.62
